Tgt: Full-length human MNK1 (Homo sapiens, UniProt Q9BUB5, T385D)
Construct: GST (N); purchased Carna Biosciences 02-145; host or cells: baculovirus expression system
Sequence (Q9BUB5 1-424 isoform Q9BUB5-2 T344D): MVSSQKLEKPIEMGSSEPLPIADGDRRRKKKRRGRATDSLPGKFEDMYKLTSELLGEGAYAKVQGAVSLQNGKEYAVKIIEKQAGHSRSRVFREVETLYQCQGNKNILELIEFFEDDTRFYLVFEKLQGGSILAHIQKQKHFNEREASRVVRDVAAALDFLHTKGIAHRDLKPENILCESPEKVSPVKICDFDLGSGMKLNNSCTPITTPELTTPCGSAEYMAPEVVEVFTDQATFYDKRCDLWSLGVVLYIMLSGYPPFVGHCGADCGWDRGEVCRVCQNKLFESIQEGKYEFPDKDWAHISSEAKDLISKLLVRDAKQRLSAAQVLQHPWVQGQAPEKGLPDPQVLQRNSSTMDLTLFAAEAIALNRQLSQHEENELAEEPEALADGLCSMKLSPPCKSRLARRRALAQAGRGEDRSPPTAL
Protocol: MNK1 biochemical IC50 assay (Caliper Mobility Shift Assay)
Run Parameters: read-out: P(IC50) MNK1 (converted)
Property Measured: IC50 (nM)

Example entries begin here.
[[record]]
compound = "O=C(NC1CCOCC1)c1nc2c(N3CC(CCN4CCCC4)c4ccccc43)ncnc2s1 (stereo not shown)"
value_measured = 50.1

[[record]]
compound = "CC(C)Oc1cc(F)ccc1Nc1ncnc2sc(C(=O)NC3CC4CCC(C3)N4C(=O)OC(C)(C)C)nc12 (stereo not shown)"
value_measured = 794


P: C[C@@H]1Cc2ccccc2N1c1ncnc2sc(C(=O)NC3CCOCC3)nc12
Q: O=C(NCC1CCNCC1)c1nc2c(Nc3ccccc3-c3ccco3)ncnc2s1
query: In the pair P and Q , the larger recorded IC50 belongs to which? Returns: label corresponding to the selected item.
result: Q

Source listed as patent US10669284B2.
